Biological target: T1, hIL-11R (Homo sapiens, UniProt Q14626)
T1 sequence (Q14626 23-422): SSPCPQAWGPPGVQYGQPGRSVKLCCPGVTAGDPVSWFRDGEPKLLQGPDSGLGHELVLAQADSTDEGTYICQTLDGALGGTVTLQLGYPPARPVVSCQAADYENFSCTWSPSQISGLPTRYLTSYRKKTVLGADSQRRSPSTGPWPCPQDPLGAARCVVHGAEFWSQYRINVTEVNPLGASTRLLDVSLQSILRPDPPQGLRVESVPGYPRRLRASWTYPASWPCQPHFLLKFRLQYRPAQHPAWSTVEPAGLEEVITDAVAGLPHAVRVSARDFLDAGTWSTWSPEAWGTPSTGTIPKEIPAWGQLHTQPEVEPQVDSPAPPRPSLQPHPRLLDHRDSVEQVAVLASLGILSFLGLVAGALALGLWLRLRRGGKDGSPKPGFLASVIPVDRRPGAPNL
Assay: Alternate biolayer interferometry assay (AHC biosensors) ranking mAbs 16-32 against mAb5
Assay type: binding
Details: AHC biosensors

molecule: mAb31: anti-IL-11Rα antibody, human IgG4 (S228P), kappa; VH SEQ ID NO: 253, VL SEQ ID NO: 254 (antibody, V domains shown, IgG4 S228P kappa constant regions; mAb31 VH Chain; mAb31 VL Chain) VH: EVQLLESGGGLVQPGGSLRLSCAASGFTFSVYSMTWVRQAPGKGLEWVSSIVPYGDLTQYADSVKGRFTISRDNSKNTLYLQMNSLRAEDTAVYYCAKGPGWGSFDLWGRGTLVTVSS VL: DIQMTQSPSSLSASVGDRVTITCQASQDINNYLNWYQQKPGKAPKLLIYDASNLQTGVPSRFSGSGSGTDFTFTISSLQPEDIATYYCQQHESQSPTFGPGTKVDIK
kd: off-scale
//
molecule: mAb5: anti-IL-11Rα antibody, human IgG4 (S228P), kappa; VH SEQ ID NO: 201, VL SEQ ID NO: 202 (antibody, V domains shown, IgG4 S228P kappa constant regions; mAb5 VH Chain; mAb5 VL Chain) VH: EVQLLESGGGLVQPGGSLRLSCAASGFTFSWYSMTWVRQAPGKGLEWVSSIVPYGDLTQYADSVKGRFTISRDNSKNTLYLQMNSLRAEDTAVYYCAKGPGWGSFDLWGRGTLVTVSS VL: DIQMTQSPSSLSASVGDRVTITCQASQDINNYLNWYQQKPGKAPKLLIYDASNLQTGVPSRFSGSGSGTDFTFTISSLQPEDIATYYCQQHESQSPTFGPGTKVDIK
kd: 2.5e-05 s⁻¹
//
molecule: mAb23: anti-IL-11Rα antibody, human IgG4 (S228P), kappa; VH SEQ ID NO: 237, VL SEQ ID NO: 238 (antibody, V domains shown, IgG4 S228P kappa constant regions; mAb23 VH Chain; mAb23 VL Chain) VH: EVQLLESGGGLVQPGGSLRLSCAASGFTFSKYSMTWVRQAPGKGLEWVSSIVPYGDLTQYADSVKGRFTISRDNSKNTLYLQMNSLRAEDTAVYYCAKGPGWGSFDLWGRGTLVTVSS VL: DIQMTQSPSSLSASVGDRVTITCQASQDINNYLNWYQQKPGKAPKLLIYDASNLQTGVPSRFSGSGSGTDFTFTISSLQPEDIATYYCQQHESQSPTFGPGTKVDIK
kd: off-scale
